Listing of entries alongside the reported logP.

# annotated cases, reported logP shown
| GIVEN SMILES | QUANTITY NAME | OBS VALUE |
| --- | --- | --- |
| COc1cccc(Br)c1 | logP | 3.03 |
| Fc1cccc(Br)c1 | logP | 2.92 |
| COc1ccc(Br)cc1 | logP | 3.05 |

Okay, next one:
logP lookup needed for Fc1ccc(Br)cc1 , thanks. 3.08

Data origin: the OPERA property sets (Mansouri et al. 2018)
